Origin of the recorded values: the supplement of paper PMC4862054

Test system: HDQ-P1
EXPERIMENT_SUMMARY: normalised viability (% of control), CellTiter-Blue; higher = more viable cells (100 = DMSO, 0 = benzethonium chloride kill control)
MEASUREMENT_CONTEXT: incubation time: 72 h
OBSERVABLE: normalised viability (%)
Kindly provide the numeric value in % only, without the unit symbol.

The recorded normalised viability for entry Cc1cc(Nc2nc(N[C@@H](C)c3ncc(F)cn3)ncc2Cl)[nH]n1 [AZD1480] (0.1 nM) equals 124

The recorded normalised viability for entry CNC(=O)c1ccccc1Sc1ccc2c(/C=C/c3ccccn3)n[nH]c2c1 [Axitinib] (1 nM) equals 73.7

The recorded normalised viability for entry CCNC(=O)c1noc(-c2cc(C(C)C)c(O)cc2O)c1-c1ccc(CN2CCOCC2)cc1 [NVP-AUY922] (0.1 nM) equals 81.1

The recorded normalised viability for entry COc1ccc(S(=O)(=O)Nc2cccnc2Nc2ccc(O)cc2)cc1 [ABT-751] (1 nM) equals 114

The recorded normalised viability for entry CC[C@H](CO)Nc1nc(NCc2ccccc2)c2ncn(C(C)C)c2n1 [Roscovitine] (1 nM) equals 83.1
